biological target: Histone deacetylase; test: Inhibition of HDAC in human HeLa cells nuclear extract using fluor de Lys as substrate preincubated for 5 mins by fluorometric analysis; format: cell-based
# note: boundary value 20 nM maps to label 0; IC50 below it maps to label 1

> print(dat)
                              smiles.string          system.name  assigned.label
1  O=C(NO)c1cnc(N2C[C@@H]3[C@H](C2)[C@H]3NC(=O)c2ccc3ccccc3c2)nc1  Histone deacetylase         label 1
2  O=C(NO)c1cnc(N2C[C@@H]3[C@H](C2)[C@H]3NCc2ccc(C(F)(F)F)cc2)nc1  Histone deacetylase         label 0
3  O=C(NO)c1cnc(N2C[C@@H]3[C@H](C2)[C@H]3NCc2ccc3cc(F)ccc3n2)nc1  Histone deacetylase         label 1
4  O=C(NO)c1cnc(N2C[C@@H]3[C@H](C2)[C@H]3NCc2cc(F)cc(F)c2)nc1  Histone deacetylase         label 1
5  O=C(NO)c1cnc(N2C[C@@H]3[C@H](C2)[C@H]3NC(=O)c2ccccc2)nc1  Histone deacetylase         label 0
6  O=C(NO)c1cnc(N2C[C@@H]3[C@H](C2)[C@H]3NCc2ccccc2)nc1  Histone deacetylase         label 1
7  O=C(NO)c1cnc(N2C[C@@H]3[C@H](C2)[C@H]3NCc2ccc(Oc3ccccc3)cc2)nc1  Histone deacetylase         label 1
8  O=C(NO)c1cnc(N2C[C@@H]3[C@H](C2)[C@H]3NS(=O)(=O)c2ccc3ccccc3c2)nc1  Histone deacetylase         label 1

---

# reported IC50; entries follow
target: Histone deacetylase; test: Inhibition of HDAC in human HeLa cells nuclear extract using fluor de Lys as substrate preincubated for 5 mins by fluorometric analysis; assay type: cell-based
endpoint: IC50 (µM)

> print(dat)
                                    compound  endpoint  endpoint.value
 1  O=C(NO)c1cnc(N2C[C@@H]3[C@H](C2)[C@H]3NCc2ccc3ccccc3c2)nc1      IC50          0.0124
 2  CCCCc1ccc(CN[C@H]2[C@@H]3CN(c4ncc(C(=O)NO)cn4)C[C@@H]32)cc1      IC50           0.022
 3  O=C(NO)c1cnc(N2CC3C(CNCc4ccc5ccccc5c4)C3C2)nc1 (stereo not drawn)      IC50           0.032
 4  O=C(NO)c1cnc(N2C[C@@H]3[C@H](C2)[C@H]3NCc2ccc(Cl)cc2)nc1      IC50           0.013
 5  O=C(NO)c1cnc(N2C[C@@H]3[C@H](C2)[C@H]3NCc2ccc(-c3ccccc3)cc2)nc1      IC50           0.014
 6  COc1ccc(CN[C@H]2[C@@H]3CN(c4ncc(C(=O)NO)cn4)C[C@@H]32)cc1      IC50            0.02
 7  O=C(NO)c1cnc(N2C[C@@H]3[C@H](C2)[C@H]3NCCc2ccccc2)nc1      IC50           0.034
 8  O=C(NO)c1cnc(N2C[C@@H]3[C@H](C2)[C@H]3NCc2ccc(Br)cc2)nc1      IC50           0.014
 9  O=C(NO)c1cnc(N2C[C@@H]3[C@H](C2)[C@H]3NCc2cc(C(F)(F)F)cc(C(F)(F)F)c2)nc1      IC50           0.016
10  N#Cc1ccc(CN[C@H]2[C@@H]3CN(c4ncc(C(=O)NO)cn4)C[C@@H]32)cc1      IC50            0.03
11  O=C(NO)c1cnc(N2C[C@@H]3[C@H](C2)[C@H]3NCc2ccc(F)cc2)nc1      IC50           0.027
12  O=C(NO)c1cnc(N2C[C@@H]3[C@H](C2)[C@H]3NCC2CCCCC2)nc1      IC50           0.044
13  O=C(NO)c1cnc(N2C[C@@H]3[C@H](C2)[C@H]3NCc2ccc3ccccc3n2)nc1      IC50           0.009
